Entries and their IC50 values follow.
- system: SSTR2 (Homo sapiens)
- Sequence (P30874 whole entry): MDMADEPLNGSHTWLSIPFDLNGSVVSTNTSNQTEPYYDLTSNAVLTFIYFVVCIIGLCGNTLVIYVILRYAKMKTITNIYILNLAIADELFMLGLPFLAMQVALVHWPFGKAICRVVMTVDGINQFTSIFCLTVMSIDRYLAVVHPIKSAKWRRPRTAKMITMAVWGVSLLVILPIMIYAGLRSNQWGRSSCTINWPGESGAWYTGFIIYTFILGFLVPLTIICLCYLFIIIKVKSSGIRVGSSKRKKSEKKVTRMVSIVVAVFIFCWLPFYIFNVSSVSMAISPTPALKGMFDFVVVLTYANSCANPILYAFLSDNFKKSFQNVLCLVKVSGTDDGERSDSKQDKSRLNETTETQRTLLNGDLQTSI
- protocolDetails: Radioligand binding assay on membranes of CHO-K1 cells expressing SSTR2
- details: membranes from CHO-K1 cells stably expressing cloned somatostatin receptor 2
- Procedure: Radiolabeling binding assays were carried out as described in the prior art like, e.g. in Gazal S. et al (2002) J. Med. Chem. 45: 1665-1671. […] The protein content was determined by Bradford, and the membrane preparation was diluted in buffer A containing 1 mg/mL bovine serum albumin (BSA) to a final 0.2 or 0.4 mg/mL membrane protein (depending on the specific somatostatin receptor used). […]
Where a SMILES comes first, the peptide text is derived from it. [ ]: non-standard residue; d: D form. Dip = N[C@H](C(=O)O)C(c1ccccc1)c1ccccc1; Phe(4-F) = N[C@@H](Cc1ccc(F)cc1)C(=O)O; 1Nal = N[C@@H](Cc1cccc2ccccc12)C(=O)O; 2Nal = N[C@@H](Cc1ccc2ccccc2c1)C(=O)O; NMeF = CN[C@@H](Cc1ccccc1)C(=O)O; Thz = O=C(O)[C@@H]1CSCN1

| compound | system | unitOfMeasure | IC50 |
| --- | --- | --- | --- |
| CSCC[C@@H]1NC(=O)[C@H]([C@@H](C)O)NC(=O)[C@H](CCCCN)NC(=O)[C@@H](Cc2c[nH]c3ccccc23)NC(=O)[C@H](Cc2ccc3ccccc3c2)NC(=O)[C@H](Cc2ccccc2)N(C)C1=O [P2279, cyclo[2Nal-Dtrp-Lys-Thr-Met-(N-Me)Phe]] (cyclo([2Nal][dW]KTM[NMeF])) | SSTR2 (Homo sapiens) | nM | 5.58 |
| CSCC[C@@H]1NC(=O)[C@H]([C@@H](C)O)NC(=O)[C@H](CCCCN)NC(=O)[C@@H](Cc2c[nH]c3ccccc23)NC(=O)[C@H](Cc2cccc3ccccc23)NC(=O)[C@H](Cc2ccccc2)N(C)C1=O [P2278, cyclo[(1)Nal-DTrp-Lys-Thr-Met-(NMe)Phe]] (cyclo([1Nal][dW]KTM[NMeF])) | SSTR2 (Homo sapiens) | nM | 0.444 |
| CSCC[C@@H]1NC(=O)[C@H]([C@@H](C)O)NC(=O)[C@H](CCCCN)NC(=O)[C@@H](Cc2c[nH]c3ccccc23)NC(=O)[C@@H]2CSCN2C(=O)[C@H](Cc2ccccc2)NC1=O [P2297, cyclo[ThioPro-DTrp-Lys-Thr-Met-Phe]] (cyclo([Thz][dW]KTMF)) | SSTR2 (Homo sapiens) | nM | 12.8 |
| CSCC[C@@H]1NC(=O)[C@H]([C@@H](C)O)NC(=O)[C@H](CCCCN)NC(=O)[C@@H](Cc2c[nH]c3ccccc23)NC(=O)[C@H](C(c2ccccc2)c2ccccc2)NC(=O)[C@H](Cc2ccccc2)N(C)C1=O [P2326] (cyclo([Dip][dW]KTM[NMeF])) | SSTR2 (Homo sapiens) | nM | 0.177 |
| CSCC[C@@H]1NC(=O)[C@H]([C@@H](C)O)NC(=O)[C@H](CCCCN)NC(=O)[C@@H](Cc2c[nH]c3ccccc23)NC(=O)[C@H](Cc2ccc(F)cc2)NC(=O)[C@H](Cc2ccccc2)N(C)C1=O [P2292] (cyclo([Phe(4-F)][dW]KTM[NMeF])) | SSTR2 (Homo sapiens) | nM | 0.152 |
| CSCC[C@@H]1NC(=O)[C@H]([C@@H](C)O)NC(=O)[C@H](CCCCN)NC(=O)[C@@H](Cc2c[nH]c3ccccc23)NC(=O)[C@H](Cc2ccc(O)cc2)NC(=O)[C@H](Cc2ccccc2)N(C)C1=O [P2265, cyclo[Tyr-DTrp-Lys-Thr-Met-(NMe)Phe]] (cyclo(Y[dW]KTM[NMeF])) | SSTR2 (Homo sapiens) | nM | 0.139 |
| CSCC[C@@H]1NC(=O)[C@H](C(C)C)NC(=O)[C@H](CCCCN)NC(=O)[C@@H](Cc2c[nH]c3ccccc23)NC(=O)[C@H](Cc2ccc(O)cc2)NC(=O)[C@H](Cc2ccccc2)N(C)C1=O [P2266, cyclo[Tyr-DTrp-Lys-Val-Met-(NMe)Phe]] (cyclo(Y[dW]KVM[NMeF])) | SSTR2 (Homo sapiens) | nM | 0.256 |
